Test: BSK_3C_Proliferation: Cell Proliferation Assessment in the BioMAP Diversity Plus: 3C Assay (AID 2283006)
Details: primary human endothelial cells (HUVEC)
Calls of active or inactive are those of the source. The calls were made as follows: active = hit-call score of the fitted dose curve at least 0.9, where 1 is the maximum; inactive = score below 0.9.
Outcome field: choose from t = active, f = inactive

Before answering, review these 5 worked examples.
c1ccc(C2CO2)cc1 (stereo unspecified) | f
ClC1=C(Cl)C2(Cl)C3C(Cl)C=CC3C1(Cl)C2(Cl)Cl (stereo unspecified) | t
Clc1ccc(C(c2ccc(Cl)cc2)C(Cl)(Cl)Cl)cc1 | t
CCC[CH2][Sn]([Cl])([CH2]CCC)[CH2]CCC | t
O=[N+]([O-])c1ccc(Oc2ccc(Cl)cc2Cl)cc1 | t

Moving on to another compound below.
Please let me know the test result on file for CN(C)c1ccc(C(=O)c2ccc(N(C)C)cc2)cc1 .
t

###

Assay: APR_HepG2_MitoMembPot_24hr: Apredica 24-hour HepG2 Assay for Mitochondrial Membrane Potential (AID 2282911)
Conditions: imaging, actives raise or lower the signal
Procedure: APR_HepG2_24hr is a cell-based, multiplexed-readout assay that uses HepG2, a human liver cell line, with measurements taken at 24 hours after chemical dosing in a 384-well plate.APR_HepG2_MitoMembPot_24hr is one of 10 assay component(s) measured or calculated from the APR_HepG2_24hr assay. […] This assay endpoint, APR_HepG2_MitoMembPot_24hr, was analyzed with bidirectional fitting relative to DMSO as the negative control and baseline of activity. […]
The source made the active and inactive calls. The calls were made as follows: active = hit-call score of the fitted dose curve at least 0.9, where 1 is the maximum; inactive = score below 0.9.
REPORTED_PROPERTY: AC50

Use these answered entries as a reference point.
CC(C)(O)c1cnn2c(-c3ccc(F)c(-c4c(F)cccc4C#N)c3)cnc2n1 | 33.1 µM (active)
c1ccc2c(c1)oc1ccccc12 | inactive
CCCCCOC(=O)c1ccccc1C(=O)OCCCCC | inactive
CCOc1cccc(C2(N3CCN(c4ccccc4)CC3)CCC(C)CC2)c1 (stereo not given) | inactive
Nc1ccc(Oc2ccc(N)cc2)cc1 | inactive
CC(C)(OOC(C)(C)c1ccccc1)c1ccccc1 | inactive
C=CCc1ccc2c(c1)OCO2 | 0.0311 µM (active)
CC(C)(C)OOC(C)(C)CCC(C)(C)OOC(C)(C)C | inactive
CC(C)(C)OOC(=O)c1ccccc1 | 33.8 µM (active)
c1ccc2c(c1)-c1cccc3cccc-2c13 | inactive

Look at this compound and give its reported AC50. O=P(OCCCl)(OCCCl)OCCCl
inactive

What do you have for CNC(=O)Oc1cccc2c1OC(C)(C)C2 ?
inactive

Try this compound next: O=Cc1ccco1
inactive

CCCCC(CC)COC(=O)c1ccc(C(=O)OCC(CC)CCCC)c(C(=O)OCC(CC)CCCC)c1 (stereo not given) , same question.
inactive

Note, next up: Clc1ccc(Cl)c(Cl)c1
inactive

Would you mind doing Cc1ccc(N=C=O)cc1N=C=O as well?
inactive

What do we get for c1ccc(NNc2ccccc2)cc1 ?
inactive

Record: COC(=O)Nc1nc2ccccc2[nH]1
inactive

###

Experiment: CCTE_Shafer_MEA_dev_interburst_interval_mean: CCTE's Neural Network Formation Assay for Mean Interburst Interval, Shafer Lab (AID 2284046);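 also: well-mean interburst interval of bursting electrodes as AUC over four recording days; curve fitted for decrease in interburst interval relative to DMSO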
Calls of active or inactive are those of the source. The calls were made as follows: active = hit-call score of the fitted dose curve at least 0.9, where 1 is the maximum; inactive = score below 0.9.
Field 'call' accepts Yes for active, No for inactive

CC(C)COC(=O)c1ccccc1C(=O)OCC(C)C | Yes
COC(=O)Nc1nc2ccccc2[nH]1 | No
COP(=S)(OC)SCN1C(=O)c2ccccc2C1=O | No
OCCOCCO | No
CNC(=O)Oc1cccc2c1OC(C)(C)C2 | No

In the following, a different molecule is considered.
What call does the record list for CN(C)[C@@H]1C(=O)C(C(N)=O)=C(O)[C@@]2(O)C(=O)C3=C(O)c4c(O)cccc4[C@@](C)(O)[C@H]3C[C@@H]12 ?
No
